system: HT-29 cells; test: Cellular RIP1 inhibitory activity: necroptosis of HT-29 cells induced by TNF-α/SMAC mimetic/zVAD-FMK, CellTiter-Glo viability; format: cell-based; conditions: Homo sapiens; HT-29 cells; TNF-α 10 ng/ml, SMAC mimetic 6 μM, zVAD-FMK 10 μM; 20 hours; geometric mean, 10 points, duplicates; read-out: EC50 (Cell activity; Necrosis or Necroptosis Inhibitory Activity)
pEC50: −log10 of the molar value.
Property Label: pEC50

Answered cases to consult:
Compound: COC1CN(C(=O)c2nc(N3CCN(C(=O)N4N=CC[C@H]4c4cncc(F)c4)CC3)ncc2Cl)C1 [Compound 64]
pEC50: 6.00 to 7.00
//
Compound: CN(C)[C@@H]1CCN(C(=O)c2nc(N3CCN(C(=O)N4N=CC[C@H]4c4cc(F)cc(F)c4)CC3)ncc2F)C1 [Compound 32]
pEC50: 7.00 to 10.00
//
Compound: CONC(=O)c1nc(N2CCN(C(=O)N3N=CC[C@H]3c3cc(F)cc(F)c3)CC2)ncc1F [Compound 3]
pEC50: 6.00 to 7.00
//
Compound: O=C(c1nc(N2CCN(C(=O)N3N=CC[C@H]3c3cc(F)cc(F)c3)CC2)ncc1F)N1CC2(COC2)C1 [Compound 14]
pEC50: 7.00 to 10.00
//
Compound: COC(=O)c1ccnc(N2CCN(C(=O)N3N=CC[C@H]3c3cc(F)cc(F)c3)CC2)n1 [Compound 49]
pEC50: 7.00 to 10.00

The measured pEC50 associated with N#CCC1CN(C(=O)c2nc(N3CCN(C(=O)N4N=CC[C@H]4c4cc(F)cc(F)c4)CC3)ncc2F)C1 [Compound 58] reads 7.00 to 10.00

The recorded pEC50 for CN(C(=O)c1nc(N2CCN(C(=O)N3N=CC[C@H]3c3cc(F)cc(F)c3)CC2)ncc1F)C1CC1 [Compound 9] is 7.00 to 10.00

The compound listed as O=C(O)c1nc(N2CCN(C(=O)N3N=CC[C@H]3c3cc(F)cc(F)c3)CC2)ncc1F [Compound 1] shows pEC50 equal to 5.00 to 6.00

Record summary for COC1CN(C(=O)c2nc(N3CCN(C(=O)N4N=CC[C@H]4c4cncc(Cl)c4)CC3)ncc2Cl)C1 (stereo in doubt) [Compound 65] : reported pEC50 = 7.00 to 10.00

The measured pEC50 associated with COC1CN(C(=O)c2nc(N3CCN(C(=O)N4N=CC[C@H]4c4cc(F)cc(F)c4)CC3)ncc2F)C1 [Compound 21] reads 7.00 to 10.00

Sure, the documented pEC50 for NC(=O)[C@H]1CCN(C(=O)c2nc(N3CCN(C(=O)N4N=CC[C@H]4c4cc(F)cc(F)c4)CC3)ncc2F)C1 [Compound 26] is 7.00 to 10.00

Item: COC1CN(C(=O)c2nc(N3CCN(C(=O)N4N=CC[C@H]4c4cc(F)cc(C#N)c4)CC3)ncc2F)C1 [Compound 51] | pEC50: 7.00 to 10.00

Data origin, for the record: patent US12612388B2
